- SUBJECT_OF_TEST: human androgen receptor (Homo sapiens, UniProt P10275)
- Construct: expressed in transfected cells; host or cells: HEK293
- Sequence (P10275 whole entry): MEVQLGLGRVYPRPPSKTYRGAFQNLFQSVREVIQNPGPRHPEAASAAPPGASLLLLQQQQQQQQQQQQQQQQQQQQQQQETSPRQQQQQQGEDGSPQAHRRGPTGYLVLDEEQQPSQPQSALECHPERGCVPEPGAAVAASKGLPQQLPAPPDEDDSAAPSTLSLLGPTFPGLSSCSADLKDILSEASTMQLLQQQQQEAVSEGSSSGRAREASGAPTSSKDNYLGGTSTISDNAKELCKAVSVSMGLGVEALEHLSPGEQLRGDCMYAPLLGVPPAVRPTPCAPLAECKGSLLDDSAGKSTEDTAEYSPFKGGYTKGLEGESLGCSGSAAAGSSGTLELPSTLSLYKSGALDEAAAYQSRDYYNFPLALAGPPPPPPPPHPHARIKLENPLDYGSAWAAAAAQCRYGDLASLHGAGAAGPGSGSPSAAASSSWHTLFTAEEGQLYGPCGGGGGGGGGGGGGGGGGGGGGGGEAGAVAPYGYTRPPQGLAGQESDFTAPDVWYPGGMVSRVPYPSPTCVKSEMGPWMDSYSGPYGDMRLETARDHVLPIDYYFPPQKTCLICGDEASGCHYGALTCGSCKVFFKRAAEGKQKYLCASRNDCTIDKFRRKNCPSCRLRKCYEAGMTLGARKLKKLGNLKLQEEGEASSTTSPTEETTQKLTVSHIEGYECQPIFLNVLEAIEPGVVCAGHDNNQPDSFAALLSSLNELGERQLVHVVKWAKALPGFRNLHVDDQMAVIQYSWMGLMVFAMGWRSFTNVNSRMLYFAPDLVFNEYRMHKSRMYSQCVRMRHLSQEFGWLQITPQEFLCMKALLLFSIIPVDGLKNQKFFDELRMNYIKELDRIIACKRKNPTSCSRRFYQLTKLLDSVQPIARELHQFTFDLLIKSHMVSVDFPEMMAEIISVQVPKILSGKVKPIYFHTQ
- EXPERIMENT: Reporter assay of an androgen receptor responsive sequence (luciferase, transiently transfected HEK293 cells)
- Assay type: cell-based
- EXPERIMENTAL_PARAMETERS: 24 hours incubation, relative to activity of 100 nM DHT, read-out: AR transcriptive activity (pEC50) (converted)
Listed below: log10(EC50) values for each entry.
Reminder: these figures are log10 of reported EC50, in µM before transformation.

Check out these entries, answers already filled in.
Cc1sc(N(Cc2c(F)cccc2F)c2ccc(C#N)cc2)nc1C(=O)NS(C)(=O)=O [Compound 124]	-0.20
Cc1oc(N(Cc2ccc(F)cc2)c2ccc(C#N)cc2)nc1C(=O)NS(C)(=O)=O [Compound 610]	0.40
COc1cc(Cl)ccc1CN(c1ccc(C#N)cc1)c1nc(C(=O)NS(C)(=O)=O)c(C)s1 [Compound 118]	-0.40
CS(=O)(=O)NC(=O)c1nc(N(Cc2ccc(OC(F)F)cc2)c2ccc(C#N)cc2)sc1Cl [Example 277]	-1.30
COCCCS(=O)(=O)NC(=O)c1nc(N(Cc2cc(OC(F)F)ccc2F)c2ccc(C#N)cc2)sc1C [Compound 521]	0.10

Query string: Reported log10(EC50), compound Cc1sc(N(Cc2ccc(Cl)cn2)c2ccc(C#N)cc2)nc1C(=O)NS(C)(=O)=O [Compound 152] : ____
Result string: -1.00

Query string: So what does the record say about log10(EC50) for Cc1sc(N(Cc2ccc(Cl)cc2OC(F)F)c2ccc(C#N)cc2)nc1C(=O)NS(C)(=O)=O [Example 193] ?
Result string: -0.30

Query string: Look up log10(EC50): Cc1sc(N(C[C@@H]2CCCC[C@H](O)C2)c2ccc(C#N)cc2)nc1C(=O)NS(C)(=O)=O (racemic) [Compound 473]
Result string: 0.10

This collection of values is drawn from patent US10689354B2.
